# Measurement Target: UniProt:Q99788
# Assay Info: PathHunter β-Arrestin assay, ChemR23 (CMKLR1), agonist and antagonist mode
Peptide text beside a SMILES is read from it.
Assay Metric: IC50

Looking up C[C@H](N)C(=O)NCC(=O)N[C@@H](CCC(=O)O)C(=O)N[C@@H](CC(=O)O)C(=O)N1CCC[C@H]1C(=O)N[C@@H](Cc1c[nH]cn1)C(=O)N[C@@H](CO)C(=O)N[C@@H](Cc1ccccc1)C(=O)N[C@@H](Cc1ccc(O)cc1)C(=O)N[C@@H](Cc1ccccc1)C(=O)N1CCC[C@H]1C(=O)NCC(=O)N[C@@H](CCC(N)=O)C(=O)N[C@@H](Cc1ccccc1)C(=O)N[C@@H](C)C(=O)O [C15 (human)] (H-AGEDPHSFYFPGQFA-OH; N-terminus and C-terminus assumed) , I see its IC50 listed as > 10 µM

###

# Measurement Target: GPR1 (Homo sapiens, UniProt P46091)
# Construct: host or cells: CHO
# Sequence (P46091 whole entry): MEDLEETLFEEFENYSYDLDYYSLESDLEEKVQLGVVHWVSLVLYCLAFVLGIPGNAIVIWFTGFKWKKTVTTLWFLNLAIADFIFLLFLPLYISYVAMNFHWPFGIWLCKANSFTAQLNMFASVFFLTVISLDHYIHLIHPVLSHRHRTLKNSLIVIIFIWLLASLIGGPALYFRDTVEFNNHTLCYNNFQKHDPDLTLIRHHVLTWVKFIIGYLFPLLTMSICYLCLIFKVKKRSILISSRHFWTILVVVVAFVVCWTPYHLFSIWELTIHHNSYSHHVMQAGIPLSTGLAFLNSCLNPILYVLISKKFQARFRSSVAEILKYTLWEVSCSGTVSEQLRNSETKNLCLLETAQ
# Assay Info: PathHunter β-Arrestin assay, GPR1, agonist and antagonist mode
# Assay type: cell-based
# Settings: GPR1; agonist mode
Peptide text beside a SMILES is read from it.
Kindly state % Max Activity for each of the entries shown.
Kindly provide the numeric value in % only, without the unit symbol.

Note to self: % Max Activity of C[C@H](N)C(=O)NCC(=O)N[C@@H](CCC(=O)O)C(=O)N[C@@H](CC(=O)O)C(=O)N1CCC[C@H]1C(=O)N[C@@H](Cc1c[nH]cn1)C(=O)N[C@@H](CO)C(=O)N[C@@H](Cc1ccccc1)C(=O)N[C@@H](Cc1ccc(O)cc1)C(=O)N[C@@H](Cc1ccccc1)C(=O)N1CCC[C@H]1C(=O)NCC(=O)N[C@@H](CCC(N)=O)C(=O)N[C@@H](Cc1ccccc1)C(=O)N[C@@H](C)C(=O)N[C@@H](Cc1ccccc1)C(=O)O [C16 (human)] (H-AGEDPHSFYFPGQFAF-OH; N-terminus and C-terminus assumed) with GPR1 (Homo sapiens, UniProt P46091) was 87.9

Note to self: % Max Activity of C[C@H](N)C(=O)NCC(=O)N[C@@H](CCC(=O)O)C(=O)N[C@@H](CC(=O)O)C(=O)N1CCC[C@H]1C(=O)N[C@@H](Cc1c[nH]cn1)C(=O)N[C@@H](CO)C(=O)N[C@@H](Cc1ccccc1)C(=O)N[C@@H](Cc1ccc(O)cc1)C(=O)N[C@@H](Cc1ccccc1)C(=O)N1CCC[C@H]1C(=O)NCC(=O)N[C@@H](CCC(N)=O)C(=O)N[C@@H](Cc1ccccc1)C(=O)N[C@@H](C)C(=O)N[C@@H](Cc1ccccc1)C(=O)N[C@@H](CO)C(=O)O [C17 (human)] (H-AGEDPHSFYFPGQFAFS-OH; N-terminus and C-terminus assumed) with GPR1 (Homo sapiens, UniProt P46091) was 80.9

Note to self: % Max Activity of C[C@H](N)C(=O)NCC(=O)N[C@@H](CCC(=O)O)C(=O)N[C@@H](CC(=O)O)C(=O)N1CCC[C@H]1C(=O)N[C@@H](Cc1c[nH]cn1)C(=O)N[C@@H](CO)C(=O)N[C@@H](Cc1ccccc1)C(=O)N[C@@H](Cc1ccc(O)cc1)C(=O)N[C@@H](Cc1ccccc1)C(=O)N1CCC[C@H]1C(=O)NCC(=O)N[C@@H](CCC(N)=O)C(=O)N[C@@H](Cc1ccccc1)C(=O)N[C@@H](C)C(=O)O [C15 (human)] (H-AGEDPHSFYFPGQFA-OH; N-terminus and C-terminus assumed) with GPR1 (Homo sapiens, UniProt P46091) was 10.6

###

# Measurement Target: ChemR23 (CMKLR1) (Homo sapiens)
# Construct: host or cells: CHO
# Sequence (Q99788 1-373): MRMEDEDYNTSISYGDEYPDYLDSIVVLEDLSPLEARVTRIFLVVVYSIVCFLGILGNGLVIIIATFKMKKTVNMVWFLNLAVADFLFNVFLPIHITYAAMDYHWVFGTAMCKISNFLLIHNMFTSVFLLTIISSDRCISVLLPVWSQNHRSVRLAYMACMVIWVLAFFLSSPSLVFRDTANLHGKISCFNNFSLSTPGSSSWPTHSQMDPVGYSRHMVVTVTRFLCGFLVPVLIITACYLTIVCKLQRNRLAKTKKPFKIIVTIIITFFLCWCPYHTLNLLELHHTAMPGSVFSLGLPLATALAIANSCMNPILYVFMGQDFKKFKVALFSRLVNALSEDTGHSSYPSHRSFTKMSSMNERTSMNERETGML
# Assay Info: PathHunter β-Arrestin assay, ChemR23 (CMKLR1), agonist and antagonist mode
# Assay type: cell-based
# Settings: ChemR23; antagonist mode, chemerin at EC80
Peptide text beside a SMILES is read from it.
Assay Metric: % Max Inhibition (%)
Kindly provide the numeric value in % only, without the unit symbol.

Looking up C[C@H](N)C(=O)NCC(=O)N[C@@H](CCC(=O)O)C(=O)N[C@@H](CC(=O)O)C(=O)N1CCC[C@H]1C(=O)N[C@@H](Cc1c[nH]cn1)C(=O)N[C@@H](CO)C(=O)N[C@@H](Cc1ccccc1)C(=O)N[C@@H](Cc1ccc(O)cc1)C(=O)N[C@@H](Cc1ccccc1)C(=O)N1CCC[C@H]1C(=O)NCC(=O)N[C@@H](CCC(N)=O)C(=O)N[C@@H](Cc1ccccc1)C(=O)N[C@@H](C)C(=O)N[C@@H](Cc1ccccc1)C(=O)N[C@@H](CO)C(=O)O [C17 (human)] (H-AGEDPHSFYFPGQFAFS-OH; N-terminus and C-terminus assumed) , I see its % Max Inhibition listed as 0

Looking up C[C@H](N)C(=O)NCC(=O)N[C@@H](CCC(=O)O)C(=O)N[C@@H](CC(=O)O)C(=O)N1CCC[C@H]1C(=O)N[C@@H](Cc1c[nH]cn1)C(=O)N[C@@H](CO)C(=O)N[C@@H](Cc1ccccc1)C(=O)N[C@@H](Cc1ccc(O)cc1)C(=O)N[C@@H](Cc1ccccc1)C(=O)N1CCC[C@H]1C(=O)NCC(=O)N[C@@H](CCC(N)=O)C(=O)N[C@@H](Cc1ccccc1)C(=O)N[C@@H](C)C(=O)N[C@@H](Cc1ccccc1)C(=O)O [C16 (human)] (H-AGEDPHSFYFPGQFAF-OH; N-terminus and C-terminus assumed) , I see its % Max Inhibition listed as 0

Looking up C[C@H](N)C(=O)NCC(=O)N[C@@H](CCC(=O)O)C(=O)N[C@@H](CC(=O)O)C(=O)N1CCC[C@H]1C(=O)N[C@@H](Cc1c[nH]cn1)C(=O)N[C@@H](CO)C(=O)N[C@@H](Cc1ccccc1)C(=O)N[C@@H](Cc1ccc(O)cc1)C(=O)N[C@@H](Cc1ccccc1)C(=O)N1CCC[C@H]1C(=O)NCC(=O)N[C@@H](CCC(N)=O)C(=O)N[C@@H](Cc1ccccc1)C(=O)N[C@@H](C)C(=O)O [C15 (human)] (H-AGEDPHSFYFPGQFA-OH; N-terminus and C-terminus assumed) , I see its % Max Inhibition listed as 0

###

# Assay Info: Franz diffusion cell skin penetration, C15 ointment
# Format: in vitro ADME, human
# Settings: female, human, ointment; 24 hours; mass balance; read-out: Total % recovery
# Protocol: The objective of the study was to determine whether human chemerin C15 peptide would diffuse through in vitro human skin maintained under flow-through conditions in Franz cells where the C15 peptide is administered as an ointment. […] C15 recovery from the dosing material, epidermis, and receptor fluid was determined by HPLC. […] The skin surface and epidermis recoveries and epidermis homogenate samples were analyzed using the following reversed phase HPLC conditions: […]
Peptide text beside a SMILES is read from it.
Assay Metric: recovery at 24 h (%)
Kindly provide the numeric value in % only, without the unit symbol.

Looking up C[C@H](N)C(=O)NCC(=O)N[C@@H](CCC(=O)O)C(=O)N[C@@H](CC(=O)O)C(=O)N1CCC[C@H]1C(=O)N[C@@H](Cc1c[nH]cn1)C(=O)N[C@@H](CO)C(=O)N[C@@H](Cc1ccccc1)C(=O)N[C@@H](Cc1ccc(O)cc1)C(=O)N[C@@H](Cc1ccccc1)C(=O)N1CCC[C@H]1C(=O)NCC(=O)N[C@@H](CCC(N)=O)C(=O)N[C@@H](Cc1ccccc1)C(=O)N[C@@H](C)C(=O)O [C15 (human)] (H-AGEDPHSFYFPGQFA-OH; N-terminus and C-terminus assumed) , I see its recovery at 24 h listed as 104

###

# Measurement Target: ChemR23 (CMKLR1) (Homo sapiens, UniProt Q99788)
# Construct: host or cells: CHO
# Sequence (Q99788 1-373): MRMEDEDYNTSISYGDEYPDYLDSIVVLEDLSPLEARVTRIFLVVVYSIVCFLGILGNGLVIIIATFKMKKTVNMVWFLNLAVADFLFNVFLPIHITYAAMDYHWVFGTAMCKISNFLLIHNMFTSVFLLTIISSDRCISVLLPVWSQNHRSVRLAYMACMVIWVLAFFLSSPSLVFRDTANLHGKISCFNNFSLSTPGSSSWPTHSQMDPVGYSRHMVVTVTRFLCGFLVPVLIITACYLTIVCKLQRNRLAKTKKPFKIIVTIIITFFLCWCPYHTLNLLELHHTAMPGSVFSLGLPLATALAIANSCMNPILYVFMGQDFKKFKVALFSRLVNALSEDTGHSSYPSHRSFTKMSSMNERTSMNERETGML
# Assay Info: PathHunter β-Arrestin assay, ChemR23 (CMKLR1), agonist and antagonist mode
# Assay type: cell-based
# Settings: ChemR23; agonist
Peptide text beside a SMILES is read from it.
Assay Metric: Rank Order
In your answer, state the number alone without any accompanying words.

Looking up C[C@H](N)C(=O)NCC(=O)N[C@@H](CCC(=O)O)C(=O)N[C@@H](CC(=O)O)C(=O)N1CCC[C@H]1C(=O)N[C@@H](Cc1c[nH]cn1)C(=O)N[C@@H](CO)C(=O)N[C@@H](Cc1ccccc1)C(=O)N[C@@H](Cc1ccc(O)cc1)C(=O)N[C@@H](Cc1ccccc1)C(=O)N1CCC[C@H]1C(=O)NCC(=O)N[C@@H](CCC(N)=O)C(=O)N[C@@H](Cc1ccccc1)C(=O)N[C@@H](C)C(=O)N[C@@H](Cc1ccccc1)C(=O)N[C@@H](CO)C(=O)O [C17 (human)] (H-AGEDPHSFYFPGQFAFS-OH; N-terminus and C-terminus assumed) , I see its Rank Order listed as 2

Every entry's value here was drawn from patent US20140349943A1.
